- experimental.target: JAK3 (Homo sapiens (Human))
- Sequence (P52333 781-1124): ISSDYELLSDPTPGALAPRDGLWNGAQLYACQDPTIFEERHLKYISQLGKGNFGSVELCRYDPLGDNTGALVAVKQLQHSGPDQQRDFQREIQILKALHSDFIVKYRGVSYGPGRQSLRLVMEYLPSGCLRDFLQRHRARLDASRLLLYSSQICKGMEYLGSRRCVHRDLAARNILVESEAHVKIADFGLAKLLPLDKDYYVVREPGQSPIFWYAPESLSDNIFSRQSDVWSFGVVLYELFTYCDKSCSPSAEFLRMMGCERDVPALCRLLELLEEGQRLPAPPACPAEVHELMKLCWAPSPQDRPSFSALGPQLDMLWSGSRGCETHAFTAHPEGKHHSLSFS
- method.description: JAK enzymatic assay (peptide mobility shift), JAK3
- condition.description: recombinant JAK3 1 nM, JAKtide peptide, 90 minutes
- Description: Recombinant JAK1 (Catalog Number PV4775), JAK2 (Catalog Number PV4210) and JAK3 (Catalog Number PV3855) were purchased from (Invitrogen Corporation, Madison, Wis.). […] Compounds were diluted serially in 100% dimethyl sulfoxide and tested in an 11 point dose response in duplicate or quadruplicate (200 nl of compound/DMSO was added per 10 L reaction). […] Data was analyzed using Hits Well Analyzer Software from (Caliper Life Sciences) to obtain the amount of product formed. […]
pIC50: −log10 of the molar value.
readout.type: pIC50

molecule	pIC50
CN(c1ncnc2[nH]ccc12)[C@H]1CC[C@H](CS(=O)(=O)N2CCC(Cc3ncccn3)CC2)CC1	6.78
CN(c1ncnc2[nH]ccc12)[C@H]1CC[C@H](CS(=O)(=O)N2CCCC(O)(COc3cccc(F)c3)C2)CC1 (stereo partly drawn)	6.31
CN(c1ncnc2[nH]ccc12)[C@H]1CC[C@H](CS(=O)(=O)N2CC[C@@](O)(c3ccccc3)C2)CC1	7.12
CN(c1ncnc2[nH]ccc12)[C@H]1CC[C@H](CS(=O)(=O)N2CCC(CC(N)=O)CC2)CC1	6.17

a. Cc1ccc(N2CCN(S(=O)(=O)C[C@H]3CC[C@H](N(C)c4ncnc5[nH]ccc45)CC3)CC2)nc1
b. CCC1(NC(=O)OCc2ccccc2)CCCN(S(=O)(=O)C[C@H]2CC[C@H](N(C)c3ncnc4[nH]ccc34)CC2)C1 (stereo partly drawn)
Query: For this pair, a and b , which shows a numerically higher pIC50? API: response body contains the label of the selected item.
Reply: a

* * *

- experimental.target: JAK3 (Homo sapiens (Human))
- method.description: JAK enzymatic assay (peptide mobility shift), JAK3
- condition.description: recombinant JAK3 1 nM, JAKtide peptide, 90 minutes
pIC50: −log10 of the molar value.
readout.type: pIC50

compound	pIC50
CN(c1ncnc2[nH]ccc12)[C@H]1CC[C@H](CS(=O)(=O)N2CC(c3cccnc3)C2)CC1	6.46

1. COCCOC1CCCN(S(=O)(=O)C[C@H]2CC[C@H](N(C)c3ncnc4[nH]ccc34)CC2)C1 (stereo partly drawn)
2. CN(c1ncnc2[nH]ccc12)[C@H]1CC[C@H](CS(=O)(=O)N2CCC[C@H](CO)C2)CC1
3. CNC(=O)C1CCN(S(=O)(=O)C[C@H]2CC[C@H](N(C)c3ncnc4[nH]ccc34)CC2)CC1
Query: Put the items in sequence by pIC50, from largest down. Provide the labels, sequenced as the question asks.
Reply: 1, 2, 3
(1: 10.43, 2: 6.63, 3: 6.42)

1. CN(c1ncnc2[nH]ccc12)[C@H]1CC[C@@H](CS(=O)(=O)N2CCC[C@H](C#N)C2)CC1
2. CN(c1ncnc2[nH]ccc12)[C@H]1CC[C@H](CS(=O)(=O)N2C[C@@H](O)[C@H](O)C2)CC1
Query: Looking only at measured pIC50, which entry is lower, 1 or 2 ? API: response body contains the label of the selected item.
Reply: 1

* * *

- experimental.target: JAK1 (Homo sapiens (Human), UniProt P23458)
- Sequence (P23458 whole entry): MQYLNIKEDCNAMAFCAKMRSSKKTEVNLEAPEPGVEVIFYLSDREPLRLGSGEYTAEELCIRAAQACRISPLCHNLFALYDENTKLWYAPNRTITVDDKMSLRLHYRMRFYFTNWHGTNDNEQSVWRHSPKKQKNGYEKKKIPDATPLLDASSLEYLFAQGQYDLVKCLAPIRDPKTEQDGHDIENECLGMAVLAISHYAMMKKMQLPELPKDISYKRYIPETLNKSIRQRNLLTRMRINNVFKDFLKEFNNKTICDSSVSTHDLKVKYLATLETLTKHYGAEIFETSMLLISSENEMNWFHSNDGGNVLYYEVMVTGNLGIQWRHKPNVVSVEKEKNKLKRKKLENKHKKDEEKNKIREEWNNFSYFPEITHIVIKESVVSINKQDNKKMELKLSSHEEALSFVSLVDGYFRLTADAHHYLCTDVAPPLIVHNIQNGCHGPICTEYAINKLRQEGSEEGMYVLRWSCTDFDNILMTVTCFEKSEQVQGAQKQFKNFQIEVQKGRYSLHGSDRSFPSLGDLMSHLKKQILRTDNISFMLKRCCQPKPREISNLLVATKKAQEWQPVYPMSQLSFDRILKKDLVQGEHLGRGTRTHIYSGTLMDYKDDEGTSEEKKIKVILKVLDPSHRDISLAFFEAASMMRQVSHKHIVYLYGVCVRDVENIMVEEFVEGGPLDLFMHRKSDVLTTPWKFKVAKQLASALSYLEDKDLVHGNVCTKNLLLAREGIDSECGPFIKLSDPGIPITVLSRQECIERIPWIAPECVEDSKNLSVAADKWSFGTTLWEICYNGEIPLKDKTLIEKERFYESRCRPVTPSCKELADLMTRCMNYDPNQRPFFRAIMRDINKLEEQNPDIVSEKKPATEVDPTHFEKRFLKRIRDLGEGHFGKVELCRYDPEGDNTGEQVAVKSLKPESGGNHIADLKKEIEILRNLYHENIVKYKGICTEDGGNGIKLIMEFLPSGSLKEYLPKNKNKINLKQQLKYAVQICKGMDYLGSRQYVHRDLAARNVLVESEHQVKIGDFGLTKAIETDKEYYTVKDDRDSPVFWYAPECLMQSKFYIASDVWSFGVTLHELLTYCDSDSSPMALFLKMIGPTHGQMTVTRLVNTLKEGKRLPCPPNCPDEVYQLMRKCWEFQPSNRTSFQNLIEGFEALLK
- method.description: JAK enzymatic assay (peptide mobility shift), JAK1
- condition.description: recombinant JAK1 20 nM, IRS-1 peptide, 240 minutes
pIC50: −log10 of the molar value.
readout.type: pIC50

compound	pIC50
CN(c1ncnc2[nH]ccc12)[C@H]1CC[C@H](CS(=O)(=O)N2CCCC(C(F)(F)F)C2)CC1 (stereo partly shown) [Example 6]	8.14
C[C@H]1CCCN1S(=O)(=O)C[C@H]1CC[C@H](N(C)c2ncnc3[nH]ccc23)CC1 [Example 86]	8.19

I. CN(c1ncnc2[nH]ccc12)[C@H]1CC[C@H](CS(=O)(=O)N2CCN(c3ccccn3)CC2)CC1 [Example 120]
II. Cc1ccc(N2CCN(S(=O)(=O)C[C@H]3CC[C@H](N(C)c4ncnc5[nH]ccc45)CC3)CC2)nc1 [Example 118]
Query: Looking only at measured pIC50, which entry is lower, I or II ? API: response body contains the label of the selected item.
Reply: II
(II: 7.78, I: 8.07)

Taken from patent US8633206B2.
